- target.or.test.system: Muscarinic acetylcholine receptor M1 (Homo sapiens)
- Sequence (whole entry): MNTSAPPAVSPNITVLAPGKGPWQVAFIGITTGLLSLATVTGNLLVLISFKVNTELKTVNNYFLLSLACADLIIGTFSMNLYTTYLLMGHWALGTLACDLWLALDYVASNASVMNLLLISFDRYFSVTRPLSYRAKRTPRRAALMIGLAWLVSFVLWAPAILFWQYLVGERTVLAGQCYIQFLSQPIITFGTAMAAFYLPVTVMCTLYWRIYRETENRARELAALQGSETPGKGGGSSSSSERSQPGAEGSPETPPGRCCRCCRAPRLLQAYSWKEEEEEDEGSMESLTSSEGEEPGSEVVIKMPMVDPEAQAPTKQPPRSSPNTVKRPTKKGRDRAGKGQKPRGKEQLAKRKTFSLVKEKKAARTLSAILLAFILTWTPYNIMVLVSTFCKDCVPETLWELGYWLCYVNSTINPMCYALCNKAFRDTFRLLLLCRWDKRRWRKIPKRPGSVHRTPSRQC
- test.protocol: Positive allosteric modulation of human muscarinic M1 receptor expressed CHO cells assessed as intrinsic potency of acetylcholine-induced calcium mobilization by FLIPR assay
- Type: functional, cell-based
Where Activity equals or exceeds 200 nM, the correct label is Satisfied; where it does not, the label is Not satisfied.

Ask: Activity >= 200 nM for CCc1c(C(=O)N[C@H]2CCCC[C@@H]2O)cc(Cc2ccc(Cl)nc2)c2ccccc12 ?
Result: Satisfied

Ask: Activity >= 200 nM for COc1c(C(=O)N[C@H]2CCCC[C@@H]2O)cc(Cc2ccc(Cl)nc2)c2ccccc12 ?
Result: Satisfied

Ask: Activity >= 200 nM for C=Cc1ccc(Cc2cc(C(=O)N[C@H]3CCCC[C@@H]3O)c(OC)c3ccccc23)cn1 ?
Result: Not satisfied

Ask: Activity >= 200 nM for COc1c(C(=O)N[C@H]2CCCC[C@@H]2O)cc(Cc2ccc(SC)nc2)c2ccccc12 ?
Result: Not satisfied

Ask: Activity >= 200 nM for CCc1ccc(Cc2cc(C(=O)N[C@H]3CCCC[C@@H]3O)c(OC)c3ccccc23)cn1 ?
Result: Not satisfied

----------
Assignment: determine reported %max for the given compounds.
- target.or.test.system: Muscarinic acetylcholine receptor M1 (Homo sapiens)
- test.protocol: Positive allosteric modulation of human muscarinic M1 receptor expressed CHO cells assessed as intrinsic potency of acetylcholine-induced calcium mobilization by FLIPR assay relative to control
- Format: functional, cell-based

Entry CCc1c(C(=O)N[C@H]2CCCC[C@@H]2O)cc(Cc2ccc(Cl)nc2)c2ccccc12 — recorded %max = 47%

Entry COc1c(C(=O)N[C@H]2CCCC[C@@H]2O)cc(CN2CCN(c3cc4ccccc4cn3)CC2)c2ccccc12 — recorded %max = 57%

Entry COc1c(C(=O)N[C@H]2CCCC[C@@H]2O)cc(Cc2ccc(Cl)nc2)c2ccccc12 — recorded %max = 74%

Entry COc1c(C(=O)N[C@H]2CCCC[C@@H]2O)cc(CN2CCN(c3cnn(C)c3)CC2)c2ccccc12 — recorded %max = 83%

Entry COc1c(C(=O)N[C@H]2CCCC[C@@H]2O)cc(Cc2ccc(-c3cccnc3)nc2)c2ccccc12 — recorded %max = 73%

Entry COc1c(C(=O)N[C@H]2CCCC[C@@H]2O)cc(Cc2ccc(C)nc2)c2ccccc12 — recorded %max = 93%

Entry C=CCOc1c(C(=O)N[C@H]2CCCC[C@@H]2O)cc(Cc2ccc(Cl)nc2)c2ccccc12 — recorded %max = 68%

Entry CCc1ccc(Cc2cc(C(=O)N[C@H]3CCCC[C@@H]3O)c(OC)c3ccccc23)cn1 — recorded %max = 73%

Entry COc1c(C(=O)N[C@H]2CCCC[C@@H]2O)cc(Cc2ccc(-n3cccn3)nc2)c2ccccc12 — recorded %max = 83%

Entry O=C(N[C@H]1CCCC[C@@H]1O)c1cc(Cc2ccc(Cl)nc2)c2ccccc2c1O — recorded %max = 35%

Entry CCOc1c(C(=O)N[C@H]2CCCC[C@@H]2O)cc(Cc2ccc(Cl)nc2)c2ccccc12 — recorded %max = 37%

Entry C=Cc1ccc(Cc2cc(C(=O)N[C@H]3CCCC[C@@H]3O)c(OC)c3ccccc23)cn1 — recorded %max = 88%

Entry COc1c(C(=O)N[C@H]2CCCC[C@@H]2O)cc(Cc2ccc(-c3cnn(C)c3)nc2)c2ccccc12 — recorded %max = 77%

Entry COc1c(C(=O)N[C@H]2CCCC[C@@H]2O)cc(CN2CCC(C#N)(c3ccccn3)CC2)c2ccccc12 — recorded %max = 62%

Entry CC(=O)Oc1c(C(=O)N[C@H]2CCCC[C@@H]2O)cc(Cc2ccc(Cl)nc2)c2ccccc12 — recorded %max = 18%

Entry COc1c(C(=O)N[C@H]2CCCC[C@@H]2O)cc(Cc2ccc(SC)nc2)c2ccccc12 — recorded %max = 76%

Entry COc1ccc(Cc2cc(C(=O)N[C@H]3CCCC[C@@H]3O)c(OC)c3ccccc23)cn1 — recorded %max = 85%

----------
- test.protocol: Plasma protein binding in rat plasma
- Format: ADME, cell-free
- reported.conditions: read-out: PPB (converted)
assay.endpoint: fraction unbound

Entry COc1c(C(=O)N[C@H]2CCCC[C@@H]2O)cc(Cc2ccc(-c3cccnc3)nc2)c2ccccc12 — recorded fraction unbound = 0.006

Entry COc1c(C(=O)N[C@H]2CCCC[C@@H]2O)cc(Cc2ccc(-n3cccn3)nc2)c2ccccc12 — recorded fraction unbound = 0.014

Entry COc1c(C(=O)N[C@H]2CCCC[C@@H]2O)cc(Cc2ccc(Cl)nc2)c2ccccc12 — recorded fraction unbound = 0.1

Entry COc1c(C(=O)N[C@H]2CCCC[C@@H]2O)cc(Cc2ccc(C)nc2)c2ccccc12 — recorded fraction unbound = 0.016

Entry COc1c(C(=O)N[C@H]2CCCC[C@@H]2O)cc(Cc2ccc(-c3cnn(C)c3)nc2)c2ccccc12 — recorded fraction unbound = 0.001

----------
- target.or.test.system: Multidrug resistance protein 1a (Rattus norvegicus, UniProt Q6PSM0)
- Sequence (Q6PSM0 whole entry): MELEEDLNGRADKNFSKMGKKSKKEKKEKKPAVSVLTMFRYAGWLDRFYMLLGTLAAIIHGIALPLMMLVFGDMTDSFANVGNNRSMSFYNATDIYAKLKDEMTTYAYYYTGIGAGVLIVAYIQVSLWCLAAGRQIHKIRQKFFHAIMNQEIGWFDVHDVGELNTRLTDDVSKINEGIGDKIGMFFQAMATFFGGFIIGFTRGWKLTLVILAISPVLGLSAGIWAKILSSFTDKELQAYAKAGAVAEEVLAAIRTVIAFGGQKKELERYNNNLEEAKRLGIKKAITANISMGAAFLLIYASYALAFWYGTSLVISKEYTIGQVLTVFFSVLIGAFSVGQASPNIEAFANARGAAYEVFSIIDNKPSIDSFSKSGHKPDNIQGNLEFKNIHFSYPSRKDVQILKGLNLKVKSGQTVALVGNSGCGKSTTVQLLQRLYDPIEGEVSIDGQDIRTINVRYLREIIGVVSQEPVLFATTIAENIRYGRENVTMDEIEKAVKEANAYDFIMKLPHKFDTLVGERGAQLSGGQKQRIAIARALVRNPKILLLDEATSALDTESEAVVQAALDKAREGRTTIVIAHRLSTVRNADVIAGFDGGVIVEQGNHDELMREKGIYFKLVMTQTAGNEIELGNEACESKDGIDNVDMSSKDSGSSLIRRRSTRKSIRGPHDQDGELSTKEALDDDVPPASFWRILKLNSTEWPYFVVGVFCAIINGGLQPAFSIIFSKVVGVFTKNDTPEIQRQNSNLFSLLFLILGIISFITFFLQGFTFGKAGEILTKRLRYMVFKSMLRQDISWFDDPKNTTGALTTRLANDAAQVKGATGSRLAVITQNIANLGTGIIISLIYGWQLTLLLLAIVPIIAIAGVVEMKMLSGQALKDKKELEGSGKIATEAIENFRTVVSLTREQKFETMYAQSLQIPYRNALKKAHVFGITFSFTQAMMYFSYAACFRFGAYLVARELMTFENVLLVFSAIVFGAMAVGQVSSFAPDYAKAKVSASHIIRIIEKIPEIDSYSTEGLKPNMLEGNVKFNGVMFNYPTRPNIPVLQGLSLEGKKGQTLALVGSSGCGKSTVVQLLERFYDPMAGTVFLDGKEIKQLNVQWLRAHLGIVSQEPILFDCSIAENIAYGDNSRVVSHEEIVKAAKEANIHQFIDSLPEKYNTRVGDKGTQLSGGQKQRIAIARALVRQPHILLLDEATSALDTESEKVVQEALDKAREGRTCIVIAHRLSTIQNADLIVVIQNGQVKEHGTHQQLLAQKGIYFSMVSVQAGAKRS
- test.protocol: Activity at rat MDR1a assessed as ratio of permeability from basolateral to apical side over permeability from apical to basolateral side by cell based assay
Label key: TRUE means Ratio under 2; FALSE means Ratio of 2 or more.

Ask: Please indicate whether the reported Ratio of COc1c(C(=O)N[C@H]2CCCC[C@@H]2O)cc(Cc2ccc(-n3cccn3)nc2)c2ccccc12 is strictly below 2.
Result: FALSE

Ask: Please indicate whether the reported Ratio of COc1c(C(=O)N[C@H]2CCCC[C@@H]2O)cc(CN2CCC(C#N)(c3ccccn3)CC2)c2ccccc12 is strictly below 2.
Result: FALSE

Ask: Please indicate whether the reported Ratio of COc1c(C(=O)N[C@H]2CCCC[C@@H]2O)cc(Cc2ccc(Cl)nc2)c2ccccc12 is strictly below 2.
Result: TRUE

Ask: Please indicate whether the reported Ratio of COc1c(C(=O)N[C@H]2CCCC[C@@H]2O)cc(Cc2ccc(-c3cnn(C)c3)nc2)c2ccccc12 is strictly below 2.
Result: TRUE

Ask: Please indicate whether the reported Ratio of N#CC1(c2ccccn2)CCN(Cc2cc(C(=O)N[C@H]3CCCC[C@@H]3O)c(=O)n3ccccc23)CC1 is strictly below 2.
Result: FALSE

Ask: Please indicate whether the reported Ratio of COc1c(C(=O)N[C@H]2CCCC[C@@H]2O)cc(Cc2ccc(-c3cccnc3)nc2)c2ccccc12 is strictly below 2.
Result: TRUE

Ask: Please indicate whether the reported Ratio of COc1c(C(=O)N[C@H]2CCCC[C@@H]2O)cc(Cc2ccc(C)nc2)c2ccccc12 is strictly below 2.
Result: FALSE

----------
- test.protocol: Apparent permeability of the compound
- Format: physicochemical
- reported.conditions: not told
Label key: condition met means Papp under 30 ×10⁻⁶ cm/s; condition not met means Papp of 30 ×10⁻⁶ cm/s or more.

Ask: Please indicate whether the reported Papp of COc1c(C(=O)N[C@H]2CCCC[C@@H]2O)cc(Cc2ccc(-c3cccnc3)nc2)c2ccccc12 is strictly below 30 ×10⁻⁶ cm/s.
Result: condition met

Ask: Please indicate whether the reported Papp of COc1c(C(=O)N[C@H]2CCCC[C@@H]2O)cc(Cc2ccc(Cl)nc2)c2ccccc12 is strictly below 30 ×10⁻⁶ cm/s.
Result: condition not met

Ask: Please indicate whether the reported Papp of COc1c(C(=O)N[C@H]2CCCC[C@@H]2O)cc(Cc2ccc(C)nc2)c2ccccc12 is strictly below 30 ×10⁻⁶ cm/s.
Result: condition not met

Ask: Please indicate whether the reported Papp of COc1c(C(=O)N[C@H]2CCCC[C@@H]2O)cc(CN2CCC(C#N)(c3ccccn3)CC2)c2ccccc12 is strictly below 30 ×10⁻⁶ cm/s.
Result: condition not met

Ask: Please indicate whether the reported Papp of COc1c(C(=O)N[C@H]2CCCC[C@@H]2O)cc(Cc2ccc(-c3cnn(C)c3)nc2)c2ccccc12 is strictly below 30 ×10⁻⁶ cm/s.
Result: condition met

Ask: Please indicate whether the reported Papp of N#CC1(c2ccccn2)CCN(Cc2cc(C(=O)N[C@H]3CCCC[C@@H]3O)c(=O)n3ccccc23)CC1 is strictly below 30 ×10⁻⁶ cm/s.
Result: condition met

Ask: Please indicate whether the reported Papp of COc1c(C(=O)N[C@H]2CCCC[C@@H]2O)cc(Cc2ccc(-n3cccn3)nc2)c2ccccc12 is strictly below 30 ×10⁻⁶ cm/s.
Result: condition not met
